Data origin: the MegaScale stability set (Tsuboyama et al. 2023)

Collected folding stability dG values appear next to each entry.
B1: HHH_rd1_0493 (parent)
chain: RDEDEKEKIKEALKRGNEDKAKEIAKRANVSPEEYERLRKEAE

- Variants of: B1
- Assay overview: folding stability dG (cDNA display proteolysis); higher = more stable
- Measurement setup: PBS, room temperature
Response body: numeric value in kcal/mol, unit text excluded.

* R39C | 1.52

Request: # return recorded folding stability dG for input L13V
Response: 1.58

Request: For the variant V30L , give its reported folding stability dG.
Response: 3.09

Request: Please give measured folding stability dG of the following entry: I24K
Response: 0.623

Request: Find the measured folding stability dG of E23D and report it.
Response: 2.56

Request: Please give measured folding stability dG of the following entry: V30Y
Response: 1.84

Request: Write down folding stability dG measured for item E11V
Response: 2.04

Request: Query folding stability dG for N17L
Response: 3.13

Request: State its folding stability dG for this variant: K26L
Response: 3.05

Request: Complete the entry with folding stability dG for E18C
Response: 2.58

Request: Output measured folding stability dG for this item: E23V
Response: 2.17

Request: Respond only with folding stability dG recorded for D2A
Response: 2.87

Request: In one line, give reported folding stability dG of the entry E11D .
Response: 2.96

Request: Identify measured folding stability dG associated with R39E
Response: 1.77

Request: Supply reported folding stability dG belonging to this variant: A21E
Response: 0.568

Request: Consider the variant E23K . State its measured folding stability dG.
Response: 2.26

Request: Output folding stability dG of E43S
Response: 2.62

Request: Output measured folding stability dG for this item: E41R
Response: 2.07

Request: Fill in reported folding stability dG for this entry: E7W
Response: 3.29

Request: Kindly indicate its recorded folding stability dG. Item: E5N
Response: 2.71

Request: Let me know recorded folding stability dG for L13F , thanks.
Response: 2.85

Request: Could you please provide reported folding stability dG for D19V ? Thanks!
Response: 2.99
